# test_protocol: 14C assay: 14CO2 capture from [14C]-carboxyl-labeled dicamba with IPTG-induced recombinant E. coli cells
# cond: IPTG-induced recombinant E. coli cells; 14CO2 from [14C]-carboxyl-labeled dicamba
value_type: Dicamba Decarboxylase Activity

[
  {
    "molecule": "80 (protein, listed as Cordyceps militaris) MAAASTPVVVDIHTHMYPPSYIAMLEKRQTIPLVRTFPQADEPRLILLSSELAALDAALADPAAKLPGRPLSTHFASLAQKMHFMDTNGIRVSVISLANPWFDFLAPDEAPGIADAVNAEFSDMCAQHVGRLFFFAALPLSAPVDAVKASIERVKNLKYCRGIILGTSGLGKGLDDPHLLPVFEAVADAKLLVFLHPHYGLPNEVYGPRSEEYGHVLPLALGFPMETTIAVARMYMAGVFDHVRNLQMLLAHSGGTLPFLAGRIESCIVHDGHLVKTGKVPKDRRTIWTVLKEQIYLDAVIYSEVGLQAAIASSGADRLMFGTDHPFFPPIEEDVQGPWDSSRLNAQAVIKAVGEGSSDAAAVMGLNAVRVLSLKAE",
    "result": "Low"
  },
  {
    "molecule": "24 (protein, Aspergillus niger) MALGKVVLEEAYERPNMKEKSNHEAGLYIAPNDRPRYMRQINDINQERLKLADAHGVGYTIISLTVPGIQGIFDKTEAERVATETNNWAAEQIKNHRDRLGAFACLSMHDPAQAANELRRCVQELGFHGALLCSFQHAGPDGETYLFYDQPKYDVFWKALTELDVPLYIHPAAPTGSILERLYAQRPALIGPPLSFANDVSLHTLGIISNGVFDRFPNLKIIIGHLGEHIPFDFWRIDHWFRDVKKPIADEEGRVMAQKSLYHYFKHNIWLTTSGHFSTPTLKYVVNEIGVDRVLFSVDYPYETTESGCNWWDHDKDAIVEAVGGVDNYYAIGRENAKKLLRLDKFHDSDAR",
    "result": "Low"
  },
  {
    "molecule": "26 (protein, listed as Variovorax paradoxus) MATHMAPMKNKIALEEHFAIDLTIADSQVYARPEVWQGLKSNLLDFEQQRLEKMDEWGTEFSILSLNSPAVQGIPDAKRAIEVAQRANDVLAEQVKRHPTRFGGFAALPMQDPEASARELERCVNQLGFHGFLVNGFSQVGDENIVVYYDDARFNDFWTAAAALKKPFYMHPRDPLLAREPIYDGAHWLTGPTWAFAMETAIHALRLMSSGMFDRHPALQMILGHFGEGIPFNIWRVDHILRKGRRGMPCDKEIGEYLRSNVHITTSGNFRTPTLLSTMLEVGSDRIMYSVDYPFEKHEDAARWFDTCEISENDRQKIGRDNARKLFGLK",
    "result": "High"
  },
  {
    "molecule": "2 (protein, listed as Serratia sp.) MAKIICLEEHTLDKALVMASMPAALEQAPFLSDWGKTVTDGNLPDRSRPQIEKNDLINIKGADIGRGRLDDMDVAGITMQVLSVGGFPHLISAAEGVDLNRAANDRLADAVNAHPDRFAAFATLPWAQPDSAEKELERAVKELGFKGALLNGRPSTHFLDHPDYDGLLARFNALGVPLYLHPGLPVRSVQQAYYGGFSDEVTARLSMFGWGWHHEAGIHLLRLILSGAFDKYPNLQVISGHWGEMLPFWLQRLDDSLPQAATGLRRTIAQTFKEQVYVTPSGMLTLPHFQFIYALLGAERIIFSVDYPYQTLDGVKAFIQSLPVPEEAKEAIAFRNAERLLGLTS",
    "result": "High"
  }
]
